Test: activity coefficient (dimensionless); of the first substance listed, at infinite dilution; xn = mol fraction of the nth substance listed
Settings: 328.15 K; 101 kPa; Liquid; Chromatography; x1 = 0
Quantity: activity coefficient

Previously resolved entries follow.
Give recorded activity coefficient. COC(C)(C)C [2-methoxy-2-methylpropane] + O=S(=O)([N-]S(=O)(=O)C(F)(F)F)C(F)(F)F.OCCC[n+]1ccccc1
2.83

Give recorded activity coefficient. C=CCCCCCC [oct-1-ene] + O=S(=O)([N-]S(=O)(=O)C(F)(F)F)C(F)(F)F.OCCC[n+]1ccccc1
48.5

From here, focus on the item given below.
Give recorded activity coefficient. CCCCO [butan-1-ol] + O=S(=O)([N-]S(=O)(=O)C(F)(F)F)C(F)(F)F.OCCC[n+]1ccccc1
2.14

* * *

Experiment: activity coefficient (dimensionless); of the first substance listed, at infinite dilution; xn = mol fraction of the nth substance listed
Settings: 328.15 K; 101 kPa; Liquid; Chromatography; x1 = 0
Decision: activity coefficient compared against 10; not below it gives T, below it gives F.

Hello, I need to know if CCCCCCC [heptane] + O=S(=O)([N-]S(=O)(=O)C(F)(F)F)C(F)(F)F.OCCC[n+]1ccccc1 has measured activity coefficient not below 10. Thanks!
T

Hello, I need to know if C1CCOC1 [tetrahydrofuran] + O=S(=O)([N-]S(=O)(=O)C(F)(F)F)C(F)(F)F.OCCC[n+]1ccccc1 has measured activity coefficient not below 10. Thanks!
F

Hello, I need to know if C#CCCCCC [1-heptyne] + O=S(=O)([N-]S(=O)(=O)C(F)(F)F)C(F)(F)F.OCCC[n+]1ccccc1 has measured activity coefficient not below 10. Thanks!
F

Others:
Hello, I need to know if c1ccsc1 [thiophene] + O=S(=O)([N-]S(=O)(=O)C(F)(F)F)C(F)(F)F.OCCC[n+]1ccccc1 has measured activity coefficient not below 10. Thanks!
F

Hello, I need to know if CCCO [propan-1-ol] + O=S(=O)([N-]S(=O)(=O)C(F)(F)F)C(F)(F)F.OCCC[n+]1ccccc1 has measured activity coefficient not below 10. Thanks!
F

Hello, I need to know if CCCCCCCCCC [decane] + O=S(=O)([N-]S(=O)(=O)C(F)(F)F)C(F)(F)F.OCCC[n+]1ccccc1 has measured activity coefficient not below 10. Thanks!
T

Hello, I need to know if CCCCCCCCC [nonane] + O=S(=O)([N-]S(=O)(=O)C(F)(F)F)C(F)(F)F.OCCC[n+]1ccccc1 has measured activity coefficient not below 10. Thanks!
T

Hello, I need to know if C=CCCCCC [1-heptene] + O=S(=O)([N-]S(=O)(=O)C(F)(F)F)C(F)(F)F.OCCC[n+]1ccccc1 has measured activity coefficient not below 10. Thanks!
T

Hello, I need to know if CC(C)CC(C)(C)C [2,2,4-trimethylpentane] + O=S(=O)([N-]S(=O)(=O)C(F)(F)F)C(F)(F)F.OCCC[n+]1ccccc1 has measured activity coefficient not below 10. Thanks!
T
